Would you mind telling me the reported kon of each entry?
# SYSTEM_NAME: T1, full-length PcrV.6xhis (Pseudomonas aeruginosa)
# T1 construct: Recombinant full-length V-tip protein of the type 3 secretion system, His-tagged; also called full-length PcrV with a C-terminal hexahistidine tag
# PROCEDURE_SUMMARY: SPR (Biacore T200), mAb captured via anti-human Fc, PcrV injected, 25 C
Please reply with the bare figure in M⁻¹ s⁻¹ and do not write the unit itself.

Measured kon, REGN3514 (antibody, V domains shown, also called Control I; Control I-REGN3514) VH: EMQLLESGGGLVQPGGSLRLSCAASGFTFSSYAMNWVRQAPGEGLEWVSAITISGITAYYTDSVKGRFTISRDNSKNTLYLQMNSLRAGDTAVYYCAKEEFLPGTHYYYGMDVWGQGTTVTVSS VL: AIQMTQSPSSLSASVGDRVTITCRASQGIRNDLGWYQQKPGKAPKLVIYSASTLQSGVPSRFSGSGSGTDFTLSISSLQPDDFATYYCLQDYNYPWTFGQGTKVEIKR : 267000

Measured kon, H1H29336P (antibody, V domains shown) VH: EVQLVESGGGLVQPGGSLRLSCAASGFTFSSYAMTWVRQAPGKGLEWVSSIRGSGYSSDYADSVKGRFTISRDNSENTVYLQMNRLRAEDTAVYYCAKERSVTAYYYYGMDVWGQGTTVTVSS VL: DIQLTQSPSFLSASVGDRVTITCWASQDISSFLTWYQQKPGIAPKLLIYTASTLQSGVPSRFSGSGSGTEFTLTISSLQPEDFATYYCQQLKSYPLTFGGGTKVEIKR : 490000

Measured kon, H1H29329P (antibody, V domains shown) VH: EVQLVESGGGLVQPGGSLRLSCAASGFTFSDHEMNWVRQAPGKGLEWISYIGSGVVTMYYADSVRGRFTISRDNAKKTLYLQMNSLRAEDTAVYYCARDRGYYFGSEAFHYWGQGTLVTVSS VL: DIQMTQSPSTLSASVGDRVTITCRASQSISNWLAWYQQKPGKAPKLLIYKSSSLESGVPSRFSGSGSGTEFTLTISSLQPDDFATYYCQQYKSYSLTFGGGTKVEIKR : 184000

Values compiled from patent US20260184768A1.
